Target: 5-HT2BR (Homo sapiens)
Construct: expressed in transfected cells; host or cells: Flp-In 293 T-Rex (tetracycline inducible)
Sequence (P41595 whole entry): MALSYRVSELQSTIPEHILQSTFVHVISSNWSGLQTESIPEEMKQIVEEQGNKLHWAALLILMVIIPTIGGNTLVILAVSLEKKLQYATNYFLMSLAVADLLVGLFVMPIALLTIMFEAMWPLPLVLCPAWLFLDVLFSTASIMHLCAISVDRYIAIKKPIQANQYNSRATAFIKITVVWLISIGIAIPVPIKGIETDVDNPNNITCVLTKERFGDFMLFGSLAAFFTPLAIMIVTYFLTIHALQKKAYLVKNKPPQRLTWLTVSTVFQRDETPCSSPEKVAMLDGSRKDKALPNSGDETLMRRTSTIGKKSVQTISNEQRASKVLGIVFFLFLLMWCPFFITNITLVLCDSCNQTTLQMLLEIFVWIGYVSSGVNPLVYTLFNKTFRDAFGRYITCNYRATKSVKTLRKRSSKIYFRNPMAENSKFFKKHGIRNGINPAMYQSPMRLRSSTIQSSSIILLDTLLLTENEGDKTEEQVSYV
Assay: Calcium flux assay (FLIPR, Fluo-4), 5-HT2BR stable cell line
Format: cell-based
Conditions: read-out: 5-HT2BR EC50
Method: Stable cell lines for 5-HT2AR, 5-HT2BR and 5-HT2CR generated using the Flp-In 293 T-Rex Tetracycline inducible system (Invitrogen). […] After dye loading, cells were placed in a FLIPR^TETRA fluorescence imaging plate reader (Molecular Dynamics). […] The fluidics module and plate reader of the FLIPR^TETRA were programmed to read baseline fluorescence for 10s (1 read/s), then 10 ul of drug/well was added and read for 5 min (1 read/s). […]
The recorded EC50 of each item maps onto one of these classes: 1 (below 0.6 µM), 2 (0.6 µM to below 5 µM), 3 (5 µM or more)

Which category does the recorded EC50 put "CCCN1CC(c2cncc(Cl)c2)=C[C@@H](C)C1" in?
1

Another molecule to check: "C[C@@H]1C=C(c2c[nH]c3ncccc23)CN(CC2(C)COC2)C1"
3

Next molecule: "Cc1ncc(CCN2CC(c3c[nH]c4ncccc34)=C[C@@H](C)C2)cn1"
2

Same again, this time with "C[C@H]1C=C(c2c[nH]c3ncccc23)CN(C2COC2)C1"
3

Follow-up item: Cc1cncc(C2=C[C@H](C)CN(CC3(O)COC3)C2)c1 (stereo in doubt)
1

Another molecule to look at: "C[C@H]1C=C(c2c[nH]c3ncccc23)CN(C2CC2)C1"
2

Follow-up item: "C[C@H]1C=C(c2c[nH]c3ncccc23)CN(Cc2cnco2)C1"
3

Try this molecule next: "C1=C(c2c[nH]c3ncccc23)CNCC1"
2

And what about the molecule "C[C@H]1C=C(c2cncc(Cl)c2)CN(CCC2CCCC2)C1" ?
1

Repeat for the following molecule: "C[C@@H]1C=C(c2c[nH]c3ncccc23)CN(C2CC2)C1"
3

Now this one: CCc1cncn1CCN1CC(c2cccn2C)=CC(C)C1 (racemic)
2
